target_or_test_system: T1, CD47-His antigen (human, UniProt Q08722 19-139)
T1 construct: Human CD47 ECD with C-terminal 8xHIS tag, expressed in HEK293F; also called hCD47-His; human CD47-His
T1 sequence (Q08722 other isoform, or with tags, fused parts or gaps limits assumed): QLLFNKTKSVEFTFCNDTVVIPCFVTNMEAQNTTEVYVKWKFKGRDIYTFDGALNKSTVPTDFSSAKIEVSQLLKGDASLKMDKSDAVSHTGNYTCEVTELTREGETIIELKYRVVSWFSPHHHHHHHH
method: competitive ELISA, CD47-His coated, competitor SIRPα-Fc-Bio 0.1 µg/mL
Listing: IC50 of selected binders
quantity_measured: IC50

binder: antibody 6 (antibody, human IgG1, kappa, V domains shown, IgG1 complete anti-CD47 antibody) VH: QVQLQESGPGLVKPSETLSLTCTVSGGSLNDYYWSWIRQPPGKGLEWIGRIYGNGDTNYNPSLKSRVTISVDTSKNQFSLRLRSVTAADTAVYYCARGGRILAGYWGQGTLVTVSS VL: DIQMTQSPSSVSASVGDRVTISCRANQAIGTWLAWYQQKPGKAPKLLIYAASTLQSGVPSRFSGSGSGTEFTLTISSLQAEDVAVYYCQQYYTTPLTFGGGTKLEIKR
quantity_measured: IC50
recorded_measurement: 1.1 µg/mL

binder: antibody 16 (antibody, human IgG1, kappa, V domains shown, IgG1 complete anti-CD47 antibody) VH: QVQLQESGPGLVKPSETLSLTCTVSGGSLDNYYWSWIRQPPGKGLEWIGYIYYSGNTNYNPSLKSRVTISVDTSKNQFSLRLRSVTAADTAVYYCARGGRIFSGYWGQGTLVTVSS VL: DIQMTQSPSSVSASVGDRVTISCRANQAIGTWLAWYQQKPGKAPKLLIYAASTLQSGVPSRFSGSGSGTEFTLTISSLQAEDVAVYYCQQYYTTPLTFGGGTKLEIKR
quantity_measured: IC50
recorded_measurement: 0.975 µg/mL

binder: antibody 17 (antibody, human IgG1, kappa, V domains shown, IgG1 complete anti-CD47 antibody) VH: QVQLQESGPGLVKPSETLSLTCTVSGGSLDNYYWSWIRQPPGKGLEWIGYIYYSGNTNYNPSLKSRVTISVDTSKNQFSLRLRSVTAADTAVYYCARGGRFLERYWGQGTLVTVSS VL: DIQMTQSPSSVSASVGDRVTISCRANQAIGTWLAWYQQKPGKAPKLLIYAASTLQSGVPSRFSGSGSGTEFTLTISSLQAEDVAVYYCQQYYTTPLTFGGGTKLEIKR
quantity_measured: IC50
recorded_measurement: 0.795 µg/mL

binder: antibody L12-6 (antibody, human IgG1, kappa, V domains shown, IgG1 complete anti-CD47 antibody) VH: QVQLQESGPGLVKPSETLSLTCTVSGGSLDNYYWSWIRQPPGKGLEWIGYIYYSGNTNYNPSLKSRVTISVDTSKNQFSLKLSSVTAADTAVYYCARGGRFLERYWGQGTLVTVSS VL: EIVLTQSPSSLSASVGDRVTIPCRASLSIGSFLNWYQQRPGEAPKLLIFAASSLRSGVPSRFSGSGSGTDFTLTISGLQPEDFATYYCQQTYTTPYTFGQGTKVDIKR
quantity_measured: IC50
recorded_measurement: 0.913 µg/mL

binder: antibody 3 (antibody, human IgG1, kappa, V domains shown, IgG1 complete anti-CD47 antibody) VH: QVQLQESGPGLVKPSETLSLTCTVSGGSLDGYYWSWIRQPPGKGLEWIGRIYGNSTTNYNPSLKSRVTISVDTSKNQFSLRLRSVTAADTAVYYCARGGRIFAGYWGQGTLVTVSS VL: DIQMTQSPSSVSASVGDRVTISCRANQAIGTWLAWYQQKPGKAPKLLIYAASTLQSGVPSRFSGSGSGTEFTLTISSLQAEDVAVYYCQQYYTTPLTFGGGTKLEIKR
quantity_measured: IC50
recorded_measurement: 0.844 µg/mL
